# Test system: Plasmodium falciparum W2 strain (CQ-resistant)
# assayOverview: In vitro antiplasmodial activity, SYBR test
# Assay type: cell-based
# conditionLabel: Plasmodium falciparum; W2 strain (chloroquine-resistant), SYBR test, triplicate; read-out: P. falciparum IC50 ± SD
# Method: Continuous culture was maintained as previously described. In vitro antiplasmodial activity of the seven compounds against the P. falciparum culture was evaluated using the SYBR test as previously described. Compounds were diluted to concentrations ranging from 10 to 0.0001 μM. […] The plate was read in a fluorometer (Fluoroskan Ascent, Thermo Laboratories) with excitation at 485 nm and an emission of […]. All experiments were performed in triplicate. […]
measurementLabel: pIC50
Reminder that pIC50 is minus the log10 of a molar concentration.

[
  {
    "compound": "COC(=O)[C@@H]1Cc2c([nH]c3ccccc23)[C@H](c2ccccc2OC)N1",
    "pIC50": 6.15
  }
]

Proceeding to the next compound to report its pIC50.
What does the record list as pIC50 for CCN(CC)c1ccc(C2NCCc3c2[nH]c2ccccc32)c(O)c1 (stereo not shown) ?
5.74

====

# Tested on: Plasmodium berghei ANKA
# assayOverview: Suppressive modified test in the mouse model of experimental cerebral malaria
# Format: in vivo, C57BL/6 mice infected with P. berghei ANKA
# conditionLabel: suppressive test, 10 mg/Kg oral for five days from 4 h after infection, 7th dpi
Each record here notes measured % Reduction of parasitemia, 7th dpi.
Give the value in % but do not write % after it.

[
  {
    "compound": "COC(=O)[C@@H]1Cc2c([nH]c3ccccc23)[C@@H](c2ccccc2OC)N1",
    "system": "Plasmodium berghei ANKA",
    "testValue": 9.78
  },
  {
    "compound": "COC(=O)[C@@H]1Cc2c([nH]c3ccccc23)[C@H](c2ccccc2OC)N1",
    "system": "Plasmodium berghei ANKA",
    "testValue": 0
  },
  {
    "compound": "CCN(CC)CCCC(C)Nc1ccnc2cc(Cl)ccc12 (stereo not shown) [CQ, chloroquine, reference compound]",
    "system": "Plasmodium berghei ANKA",
    "testValue": 96.1
  }
]

Proceeding to the next compound to report its % Reduction of parasitemia, 7th dpi.
What does the record list as % Reduction of parasitemia, 7th dpi for "COc1cc(-c2nccc3c2[nH]c2ccccc23)cc(OC)c1OC" ?
45.69

====

# System: Plasmodium berghei ANKA
# assayOverview: Curative test in the mouse model of experimental cerebral malaria
# Format: in vivo, C57BL/6 mice infected with P. berghei ANKA
# conditionLabel: 10 mg/Kg oral, day 3 to 7 p.i., 7th dpi
measurementLabel: Parasitemia ± SD, 7th dpi
The answer should be written as a number, with no unit following it.

Solved entries:
[
  {
    "compound": "COC(=O)[C@@H]1Cc2c([nH]c3ccccc23)[C@H](c2ccccc2OC)N1",
    "Parasitemia ± SD, 7th dpi": 7.50
  },
  {
    "compound": "CCN(CC)CCCC(C)Nc1ccnc2cc(Cl)ccc12 (centres unmarked) [CQ, chloroquine, reference compound]",
    "Parasitemia ± SD, 7th dpi": 0.21
  },
  {
    "compound": "COC(=O)[C@@H]1Cc2c([nH]c3ccccc23)[C@H](c2ccccc2Cl)N1",
    "Parasitemia ± SD, 7th dpi": 7.20
  }
]

What does the record list as Parasitemia ± SD, 7th dpi for "COC(=O)[C@@H]1Cc2c([nH]c3ccccc23)[C@@H](c2ccccc2OC)N1" ?
5.48

What about this compound? "COc1cc(-c2nccc3c2[nH]c2ccccc23)cc(OC)c1OC"
8.37

====

# Tested on: Plasmodium berghei ANKA
# assayOverview: Curative test in the mouse model of experimental cerebral malaria
# Format: in vivo, C57BL/6 mice infected with P. berghei ANKA
# conditionLabel: 10 mg/Kg oral, day 3 to 7 p.i., 7th dpi
measurementLabel: % Reduction of parasitemia, 7th dpi (%)
Give the value in % but do not write % after it.

[
  {
    "molecule": "COC(=O)[C@@H]1Cc2c([nH]c3ccccc23)[C@H](c2ccccc2OC)N1 [Compound 3]",
    "u": "%",
    "testValue": 0
  },
  {
    "molecule": "COC(=O)[C@@H]1Cc2c([nH]c3ccccc23)[C@@H](c2ccccc2OC)N1 [Compound 4]",
    "u": "%",
    "testValue": 20.00
  },
  {
    "molecule": "COc1cc(-c2nccc3c2[nH]c2ccccc23)cc(OC)c1OC [Compound 10]",
    "u": "%",
    "testValue": 0
  }
]

What does the record list as % Reduction of parasitemia, 7th dpi for CCN(CC)CCCC(C)Nc1ccnc2cc(Cl)ccc12 (centres unmarked) [CQ, chloroquine, reference compound] ?
96.1

What about this molecule? COC(=O)[C@@H]1Cc2c([nH]c3ccccc23)[C@H](c2ccccc2Cl)N1 [Compound 5]
0

====

# System: Plasmodium falciparum W2 strain (CQ-resistant)
# assayOverview: In vitro antiplasmodial activity, SYBR test
# Assay type: cell-based
# conditionLabel: Plasmodium falciparum; W2 strain (chloroquine-resistant), SYBR test, triplicate; read-out: P. falciparum IC50 ± SD
measurementLabel: pIC50
Reminder that pIC50 is minus the log10 of a molar concentration.

[
  {
    "molecule": "COc1cc(-c2nccc3c2[nH]c2ccccc23)cc(OC)c1OC [Compound 10]",
    "measurementLabel": "pIC50",
    "testValue": 6.29
  },
  {
    "molecule": "COC(=O)[C@@H]1Cc2c([nH]c3ccccc23)[C@@H](c2ccccc2Cl)N1 [Compound 6]",
    "measurementLabel": "pIC50",
    "testValue": 6.17
  },
  {
    "molecule": "COC(=O)[C@@H]1Cc2c([nH]c3ccccc23)[C@@H](c2ccccc2OC)N1 [Compound 4]",
    "measurementLabel": "pIC50",
    "testValue": 5.98
  },
  {
    "molecule": "COc1cc(C2NCCc3c2[nH]c2ccccc32)cc(OC)c1OC (centres unmarked) [Compound 9]",
    "measurementLabel": "pIC50",
    "testValue": 5.95
  }
]

Proceeding to the next molecule to report its pIC50.
What does the record list as pIC50 for COC(=O)[C@@H]1Cc2c([nH]c3ccccc23)[C@H](c2ccccc2Cl)N1 [Compound 5] ?
5.85
